// provenance: ChEMBL document CHEMBL5661983

measurement.target: BDNF/NT-3 growth factors receptor (Homo sapiens)
parameter: IC50

1) COc1cc(N2CCC(N3CCN(C)CC3)CC2)ccc1Nc1ncnc(Nc2ccccc2S(=O)(=O)C(C)C)n1; > 1000 nM

###

measurement.target: High affinity nerve growth factor receptor (Homo sapiens, UniProt P04629)
Sequence (P04629 whole entry): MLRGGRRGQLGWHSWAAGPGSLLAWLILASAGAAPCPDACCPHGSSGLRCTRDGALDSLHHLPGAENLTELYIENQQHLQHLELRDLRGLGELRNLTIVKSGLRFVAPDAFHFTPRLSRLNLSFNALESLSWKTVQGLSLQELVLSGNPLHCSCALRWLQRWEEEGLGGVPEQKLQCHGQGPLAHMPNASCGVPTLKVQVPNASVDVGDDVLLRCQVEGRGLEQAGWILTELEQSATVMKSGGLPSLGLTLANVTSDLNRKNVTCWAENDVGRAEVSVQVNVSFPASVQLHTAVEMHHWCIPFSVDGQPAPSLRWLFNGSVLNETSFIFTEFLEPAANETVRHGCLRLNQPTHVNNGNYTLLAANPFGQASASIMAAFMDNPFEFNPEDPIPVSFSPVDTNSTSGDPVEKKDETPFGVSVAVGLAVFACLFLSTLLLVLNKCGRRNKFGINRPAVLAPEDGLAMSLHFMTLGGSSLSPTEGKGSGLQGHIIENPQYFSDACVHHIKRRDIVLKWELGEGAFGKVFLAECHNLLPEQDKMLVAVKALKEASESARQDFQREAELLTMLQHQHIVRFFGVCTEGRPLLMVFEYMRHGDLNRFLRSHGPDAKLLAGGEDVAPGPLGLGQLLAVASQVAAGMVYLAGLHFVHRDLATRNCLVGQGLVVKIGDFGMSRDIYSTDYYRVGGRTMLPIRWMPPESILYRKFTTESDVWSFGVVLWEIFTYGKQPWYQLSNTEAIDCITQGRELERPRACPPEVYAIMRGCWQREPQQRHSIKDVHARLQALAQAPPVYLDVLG
parameter: IC50

1. COc1cc(N2CCC(N3CCN(C)CC3)CC2)ccc1Nc1ncnc(Nc2ccccc2S(=O)(=O)C(C)C)n1 [ASP-3026]; > 1000 nM

###

measurement.target: Tyrosine-protein kinase JAK2 (Homo sapiens, UniProt O60674)
pIC50: −log10 of the molar value.
parameter: pIC50

1. COc1cc(N2CCC(N3CCN(C)CC3)CC2)ccc1Nc1ncnc(Nc2ccccc2S(=O)(=O)C(C)C)n1 [ASP-3026]; < 6.00

###

measurement.target: Epidermal growth factor receptor (Homo sapiens, UniProt P00533, L858R)
parameter: IC50 (nM)

1) COc1cc(N2CCC(N3CCN(C)CC3)CC2)ccc1Nc1ncnc(Nc2ccccc2S(=O)(=O)C(C)C)n1; 86

###

measurement.target: Activated CDC42 kinase 1 (Homo sapiens, UniProt Q07912)
parameter: IC50 (nM)

1. COc1cc(N2CCC(N3CCN(C)CC3)CC2)ccc1Nc1ncnc(Nc2ccccc2S(=O)(=O)C(C)C)n1; 5.8

###

measurement.target: Muscle, skeletal receptor tyrosine-protein kinase (Homo sapiens, UniProt O15146)
parameter: IC50

1) COc1cc(N2CCC(N3CCN(C)CC3)CC2)ccc1Nc1ncnc(Nc2ccccc2S(=O)(=O)C(C)C)n1 [ASP-3026]; > 100 nM

###

measurement.target: EML4-ALK (Homo sapiens, UniProt Q9UM73)
parameter: IC50

1. COc1cc(N2CCC(N3CCN(C)CC3)CC2)ccc1Nc1ncnc(Nc2ccccc2S(=O)(=O)C(C)C)n1; 0.01 µM

###

method.summary: Tmax in human NCI-H2228 cell xenografted NOD.CB17-Prkdcscid/J mouse tumor at 3 mg/kg/day for 5 days by HPLC-MS analysis
Assay type: ADME, organism-based, Neoplasm
setup.conditions: route po, time 5 day
parameter: Tmax (h)

1) COc1cc(N2CCC(N3CCN(C)CC3)CC2)ccc1Nc1ncnc(Nc2ccccc2S(=O)(=O)C(C)C)n1 [ASP-3026]; 4

###

method.summary: Cmax in human NCI-H2228 cell xenografted NOD.CB17-Prkdcscid/J mouse plasma at 10 mg/kg/day for 5 days by HPLC-MS analysis
Type: ADME, organism-based
setup.conditions: route po, time 5 day
parameter: Cmax

1) COc1cc(N2CCC(N3CCN(C)CC3)CC2)ccc1Nc1ncnc(Nc2ccccc2S(=O)(=O)C(C)C)n1 [ASP-3026]; 508 ng/mL

###

measurement.target: ALK tyrosine kinase receptor (Homo sapiens, UniProt Q9UM73)
Sequence (Q9UM73 whole entry): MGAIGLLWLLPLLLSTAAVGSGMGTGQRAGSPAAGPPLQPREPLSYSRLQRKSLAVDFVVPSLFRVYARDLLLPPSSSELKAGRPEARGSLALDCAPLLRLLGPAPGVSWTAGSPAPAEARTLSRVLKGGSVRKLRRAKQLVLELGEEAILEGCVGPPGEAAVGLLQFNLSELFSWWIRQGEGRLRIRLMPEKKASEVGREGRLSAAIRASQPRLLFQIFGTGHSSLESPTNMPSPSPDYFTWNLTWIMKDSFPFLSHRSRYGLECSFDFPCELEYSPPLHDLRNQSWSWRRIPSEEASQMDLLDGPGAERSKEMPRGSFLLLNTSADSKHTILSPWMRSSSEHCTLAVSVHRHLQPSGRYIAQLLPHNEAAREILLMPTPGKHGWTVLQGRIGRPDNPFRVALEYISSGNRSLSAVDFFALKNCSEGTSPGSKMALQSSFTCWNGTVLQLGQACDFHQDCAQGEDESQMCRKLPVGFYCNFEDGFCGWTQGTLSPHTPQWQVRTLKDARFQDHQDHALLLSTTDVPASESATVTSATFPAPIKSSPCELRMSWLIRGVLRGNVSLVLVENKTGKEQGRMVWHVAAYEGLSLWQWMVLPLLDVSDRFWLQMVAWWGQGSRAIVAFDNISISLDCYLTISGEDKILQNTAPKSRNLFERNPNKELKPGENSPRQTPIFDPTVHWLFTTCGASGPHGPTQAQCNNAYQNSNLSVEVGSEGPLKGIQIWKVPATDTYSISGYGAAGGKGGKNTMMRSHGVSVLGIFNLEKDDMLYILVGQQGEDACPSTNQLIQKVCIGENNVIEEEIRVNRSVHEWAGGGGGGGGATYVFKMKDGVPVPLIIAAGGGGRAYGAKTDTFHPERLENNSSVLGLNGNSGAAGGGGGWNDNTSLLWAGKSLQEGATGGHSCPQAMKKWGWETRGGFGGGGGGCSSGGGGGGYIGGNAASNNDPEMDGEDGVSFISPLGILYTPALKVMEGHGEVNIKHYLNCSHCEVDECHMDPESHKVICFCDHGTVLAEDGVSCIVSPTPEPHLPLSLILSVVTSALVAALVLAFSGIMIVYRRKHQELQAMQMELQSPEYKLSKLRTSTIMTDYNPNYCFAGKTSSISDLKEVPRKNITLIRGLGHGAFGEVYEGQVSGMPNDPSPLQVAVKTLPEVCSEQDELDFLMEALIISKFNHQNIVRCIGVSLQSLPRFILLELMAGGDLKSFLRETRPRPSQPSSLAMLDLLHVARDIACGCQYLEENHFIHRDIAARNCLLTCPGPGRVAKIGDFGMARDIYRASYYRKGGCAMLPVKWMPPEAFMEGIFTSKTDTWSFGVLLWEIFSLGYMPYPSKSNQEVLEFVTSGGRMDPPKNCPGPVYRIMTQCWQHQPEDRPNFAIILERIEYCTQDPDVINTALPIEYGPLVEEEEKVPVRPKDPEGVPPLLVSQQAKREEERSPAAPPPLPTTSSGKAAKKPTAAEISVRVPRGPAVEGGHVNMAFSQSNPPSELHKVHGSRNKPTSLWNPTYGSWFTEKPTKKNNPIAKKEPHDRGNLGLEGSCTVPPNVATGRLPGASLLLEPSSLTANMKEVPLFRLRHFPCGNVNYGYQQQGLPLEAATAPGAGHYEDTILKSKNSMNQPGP
parameter: IC50 (nM)

1. COc1cc(N2CCC(N3CCN(C)CC3)CC2)ccc1Nc1ncnc(Nc2ccccc2S(=O)(=O)C(C)C)n1; 3.5

###

measurement.target: Ephrin type-A receptor 2 (Homo sapiens)
parameter: IC50

1. COc1cc(N2CCC(N3CCN(C)CC3)CC2)ccc1Nc1ncnc(Nc2ccccc2S(=O)(=O)C(C)C)n1 [ASP-3026]; > 1000 nM

###

method.summary: AUC (0 to 24 hrs) in human NCI-H2228 cell xenografted NOD.CB17-Prkdcscid/J mouse plasma at 3 mg/kg/day for 5 days by HPLC-MS analysis
Type: ADME, organism-based
setup.conditions: route po, time 5 day
parameter: AUC at 120 h (ng·h/mL)

1. COc1cc(N2CCC(N3CCN(C)CC3)CC2)ccc1Nc1ncnc(Nc2ccccc2S(=O)(=O)C(C)C)n1; 1820

###

measurement.target: EML4-ALK (Homo sapiens, UniProt Q9UM73, L1196M)
Sequence (Q9UM73 19-1620 L1196M limits assumed): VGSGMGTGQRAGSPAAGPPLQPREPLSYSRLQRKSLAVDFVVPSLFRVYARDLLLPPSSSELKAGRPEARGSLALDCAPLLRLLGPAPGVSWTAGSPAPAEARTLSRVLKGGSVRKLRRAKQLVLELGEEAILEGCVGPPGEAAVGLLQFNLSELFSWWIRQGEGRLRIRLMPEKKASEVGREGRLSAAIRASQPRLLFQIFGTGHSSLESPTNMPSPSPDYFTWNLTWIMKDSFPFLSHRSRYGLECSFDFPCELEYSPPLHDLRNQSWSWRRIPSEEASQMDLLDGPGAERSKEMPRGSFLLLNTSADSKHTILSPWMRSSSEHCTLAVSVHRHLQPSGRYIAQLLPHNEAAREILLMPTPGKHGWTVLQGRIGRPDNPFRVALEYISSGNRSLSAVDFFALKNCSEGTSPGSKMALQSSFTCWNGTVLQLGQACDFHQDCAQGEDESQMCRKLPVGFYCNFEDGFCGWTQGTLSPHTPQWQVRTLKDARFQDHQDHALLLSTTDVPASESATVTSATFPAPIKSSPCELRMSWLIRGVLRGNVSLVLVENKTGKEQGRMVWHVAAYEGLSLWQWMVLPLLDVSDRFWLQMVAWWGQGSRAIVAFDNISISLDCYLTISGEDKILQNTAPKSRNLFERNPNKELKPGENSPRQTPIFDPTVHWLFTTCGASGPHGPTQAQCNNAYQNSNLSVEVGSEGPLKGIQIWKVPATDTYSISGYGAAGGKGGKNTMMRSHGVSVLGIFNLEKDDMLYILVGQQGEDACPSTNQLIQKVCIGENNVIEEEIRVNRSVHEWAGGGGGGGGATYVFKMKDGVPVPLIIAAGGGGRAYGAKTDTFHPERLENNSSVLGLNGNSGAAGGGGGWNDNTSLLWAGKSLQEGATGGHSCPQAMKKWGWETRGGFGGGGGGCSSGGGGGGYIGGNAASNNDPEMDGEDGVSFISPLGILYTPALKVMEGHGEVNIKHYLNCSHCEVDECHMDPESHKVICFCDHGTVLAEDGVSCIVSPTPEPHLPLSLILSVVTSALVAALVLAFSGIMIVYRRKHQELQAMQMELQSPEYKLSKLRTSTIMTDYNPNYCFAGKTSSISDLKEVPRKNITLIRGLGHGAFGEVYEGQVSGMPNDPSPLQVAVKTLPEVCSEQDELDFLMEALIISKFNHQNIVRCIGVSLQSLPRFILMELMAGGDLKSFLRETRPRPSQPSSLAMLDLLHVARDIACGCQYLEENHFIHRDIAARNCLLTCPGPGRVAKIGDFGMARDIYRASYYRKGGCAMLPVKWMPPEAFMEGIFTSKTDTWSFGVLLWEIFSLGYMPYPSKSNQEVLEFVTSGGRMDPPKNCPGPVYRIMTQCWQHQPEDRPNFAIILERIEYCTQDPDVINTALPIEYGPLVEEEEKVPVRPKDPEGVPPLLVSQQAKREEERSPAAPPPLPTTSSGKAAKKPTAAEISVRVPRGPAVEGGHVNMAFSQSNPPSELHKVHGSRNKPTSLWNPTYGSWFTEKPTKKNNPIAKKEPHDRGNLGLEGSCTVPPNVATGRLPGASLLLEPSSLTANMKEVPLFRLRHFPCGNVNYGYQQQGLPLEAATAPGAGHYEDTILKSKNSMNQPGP
Format: cell-based, BaF3
pIC50: −log10 of the molar value.
parameter: pIC50

1. COc1cc(N2CCC(N3CCN(C)CC3)CC2)ccc1Nc1ncnc(Nc2ccccc2S(=O)(=O)C(C)C)n1 [ASP-3026]; 7.49

###

measurement.target: Proto-oncogene tyrosine-protein kinase ROS (Homo sapiens)
parameter: IC50 (nM)

1. COc1cc(N2CCC(N3CCN(C)CC3)CC2)ccc1Nc1ncnc(Nc2ccccc2S(=O)(=O)C(C)C)n1 [ASP-3026]; 8.9

###

measurement.target: Ephrin type-A receptor 6 (Homo sapiens)
pIC50: −log10 of the molar value.
parameter: pIC50

1) COc1cc(N2CCC(N3CCN(C)CC3)CC2)ccc1Nc1ncnc(Nc2ccccc2S(=O)(=O)C(C)C)n1 [ASP-3026]; < 6.00

###

measurement.target: Tyrosine-protein kinase Yes (Homo sapiens, UniProt P07947)
Sequence (P07947 whole entry): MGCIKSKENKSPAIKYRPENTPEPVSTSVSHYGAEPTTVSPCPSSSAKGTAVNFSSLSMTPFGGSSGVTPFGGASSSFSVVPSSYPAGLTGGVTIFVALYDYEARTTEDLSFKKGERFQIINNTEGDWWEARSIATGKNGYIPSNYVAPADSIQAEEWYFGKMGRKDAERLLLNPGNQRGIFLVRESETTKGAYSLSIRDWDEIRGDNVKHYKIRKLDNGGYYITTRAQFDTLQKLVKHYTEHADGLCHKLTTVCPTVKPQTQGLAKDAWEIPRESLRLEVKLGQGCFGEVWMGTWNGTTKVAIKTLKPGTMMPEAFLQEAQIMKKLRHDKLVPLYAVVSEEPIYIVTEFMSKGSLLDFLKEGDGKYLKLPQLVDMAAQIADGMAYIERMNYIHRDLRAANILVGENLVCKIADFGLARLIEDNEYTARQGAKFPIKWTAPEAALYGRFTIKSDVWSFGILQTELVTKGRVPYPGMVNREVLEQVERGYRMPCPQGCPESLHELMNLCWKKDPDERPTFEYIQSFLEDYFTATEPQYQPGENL
parameter: IC50 (nM)

1) COc1cc(N2CCC(N3CCN(C)CC3)CC2)ccc1Nc1ncnc(Nc2ccccc2S(=O)(=O)C(C)C)n1; 31.5

###

method.summary: Cmax in human NCI-H2228 cell xenografted NOD.CB17-Prkdcscid/J mouse plasma at 3 mg/kg/day for 5 days by HPLC-MS analysis
Assay type: ADME, organism-based
setup.conditions: route po, time 5 day
parameter: Cmax (ng/mL)

1. COc1cc(N2CCC(N3CCN(C)CC3)CC2)ccc1Nc1ncnc(Nc2ccccc2S(=O)(=O)C(C)C)n1; 140

###

method.summary: AUC (0 to 24 hrs) in human NCI-H2228 cell xenografted NOD.CB17-Prkdcscid/J mouse plasma at 1 mg/kg/day for 5 days by HPLC-MS analysis
Format: ADME, organism-based
setup.conditions: route po, time 5 day
parameter: AUC at 120 h (ng·h/mL)

1) COc1cc(N2CCC(N3CCN(C)CC3)CC2)ccc1Nc1ncnc(Nc2ccccc2S(=O)(=O)C(C)C)n1 [ASP-3026]; 630

###

measurement.target: Tyrosine-protein kinase Lck (Homo sapiens)
Sequence (P06239 whole entry): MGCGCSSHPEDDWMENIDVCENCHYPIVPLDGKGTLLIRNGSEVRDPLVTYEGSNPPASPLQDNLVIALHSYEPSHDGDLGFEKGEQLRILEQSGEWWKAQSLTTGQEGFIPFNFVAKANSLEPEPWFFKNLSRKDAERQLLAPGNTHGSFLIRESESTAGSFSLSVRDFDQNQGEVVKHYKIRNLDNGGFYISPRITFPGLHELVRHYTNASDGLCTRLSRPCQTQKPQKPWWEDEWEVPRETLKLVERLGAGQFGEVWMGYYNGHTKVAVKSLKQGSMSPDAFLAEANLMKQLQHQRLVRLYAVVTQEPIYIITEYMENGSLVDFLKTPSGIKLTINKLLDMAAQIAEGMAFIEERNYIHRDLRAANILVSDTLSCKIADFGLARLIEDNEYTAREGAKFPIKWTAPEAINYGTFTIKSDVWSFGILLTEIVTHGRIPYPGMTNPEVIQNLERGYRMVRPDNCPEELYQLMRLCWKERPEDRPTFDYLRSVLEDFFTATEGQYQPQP
parameter: IC50

1. COc1cc(N2CCC(N3CCN(C)CC3)CC2)ccc1Nc1ncnc(Nc2ccccc2S(=O)(=O)C(C)C)n1; > 100 nM

###

method.summary: Tmax in human NCI-H2228 cell xenografted NOD.CB17-Prkdcscid/J mouse tumor at 10 mg/kg/day for 5 days by HPLC-MS analysis
Type: ADME, organism-based, Neoplasm
setup.conditions: route po, time 5 day
parameter: Tmax (h)

1. COc1cc(N2CCC(N3CCN(C)CC3)CC2)ccc1Nc1ncnc(Nc2ccccc2S(=O)(=O)C(C)C)n1; 4

###

measurement.target: ALK tyrosine kinase receptor (Homo sapiens, UniProt Q9UM73, R1275Q)
parameter: IC50

1) COc1cc(N2CCC(N3CCN(C)CC3)CC2)ccc1Nc1ncnc(Nc2ccccc2S(=O)(=O)C(C)C)n1; 5.4 nM

###

method.summary: Cmax in human NCI-H2228 cell xenografted NOD.CB17-Prkdcscid/J mouse tumor at 10 mg/kg/day for 5 days by HPLC-MS analysis
Type: ADME, organism-based, Neoplasm
setup.conditions: route po, time 5 day
parameter: Cmax (ng/g)

1) COc1cc(N2CCC(N3CCN(C)CC3)CC2)ccc1Nc1ncnc(Nc2ccccc2S(=O)(=O)C(C)C)n1; 8990

###

method.summary: Ratio of Cmax in human NCI-H2228 cell xenografted NOD.CB17-Prkdcscid/J mouse tumor to plasma at 10 mg/kg/day for 5 days by HPLC-MS analysis
Assay type: ADME, organism-based
setup.conditions: tumor and plasma, route po, time 5 day
parameter: Kp at 120 h

1. COc1cc(N2CCC(N3CCN(C)CC3)CC2)ccc1Nc1ncnc(Nc2ccccc2S(=O)(=O)C(C)C)n1; 18

###

measurement.target: Tyrosine-protein kinase receptor UFO (Homo sapiens, UniProt P30530)
Sequence (P30530 whole entry): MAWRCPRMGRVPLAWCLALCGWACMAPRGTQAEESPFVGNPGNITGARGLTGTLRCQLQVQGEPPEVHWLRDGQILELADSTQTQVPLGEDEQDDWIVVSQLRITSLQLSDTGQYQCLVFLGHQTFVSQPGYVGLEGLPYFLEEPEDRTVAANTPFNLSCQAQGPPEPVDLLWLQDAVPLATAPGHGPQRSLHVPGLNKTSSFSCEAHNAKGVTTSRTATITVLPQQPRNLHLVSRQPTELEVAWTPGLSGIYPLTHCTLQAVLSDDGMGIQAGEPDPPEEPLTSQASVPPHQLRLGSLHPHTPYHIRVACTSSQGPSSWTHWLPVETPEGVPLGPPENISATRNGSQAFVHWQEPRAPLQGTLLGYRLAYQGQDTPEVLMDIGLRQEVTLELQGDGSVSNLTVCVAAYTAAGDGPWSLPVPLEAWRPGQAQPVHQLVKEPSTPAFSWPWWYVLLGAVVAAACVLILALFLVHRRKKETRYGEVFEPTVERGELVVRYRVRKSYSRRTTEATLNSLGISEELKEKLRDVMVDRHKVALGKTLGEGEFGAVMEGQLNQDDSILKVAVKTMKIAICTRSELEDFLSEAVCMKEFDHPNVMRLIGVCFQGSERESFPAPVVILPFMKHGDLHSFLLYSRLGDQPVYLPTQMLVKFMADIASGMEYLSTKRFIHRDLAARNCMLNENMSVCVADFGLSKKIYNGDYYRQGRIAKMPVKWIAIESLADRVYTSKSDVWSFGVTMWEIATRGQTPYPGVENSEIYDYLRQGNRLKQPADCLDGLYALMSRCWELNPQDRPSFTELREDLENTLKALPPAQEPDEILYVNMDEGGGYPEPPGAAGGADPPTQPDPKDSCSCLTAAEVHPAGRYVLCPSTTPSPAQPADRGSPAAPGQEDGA
pIC50: −log10 of the molar value.
parameter: pIC50

1) COc1cc(N2CCC(N3CCN(C)CC3)CC2)ccc1Nc1ncnc(Nc2ccccc2S(=O)(=O)C(C)C)n1 [ASP-3026]; < 7.00
